Target: METTL3 WT;METTL14 R298P (Homo sapiens;Homo sapiens, UniProt Q86U44;Q9HCE5 1-580;1-456, |R298P)
Sequence (Q86U44 whole entry, chain 1 of 2): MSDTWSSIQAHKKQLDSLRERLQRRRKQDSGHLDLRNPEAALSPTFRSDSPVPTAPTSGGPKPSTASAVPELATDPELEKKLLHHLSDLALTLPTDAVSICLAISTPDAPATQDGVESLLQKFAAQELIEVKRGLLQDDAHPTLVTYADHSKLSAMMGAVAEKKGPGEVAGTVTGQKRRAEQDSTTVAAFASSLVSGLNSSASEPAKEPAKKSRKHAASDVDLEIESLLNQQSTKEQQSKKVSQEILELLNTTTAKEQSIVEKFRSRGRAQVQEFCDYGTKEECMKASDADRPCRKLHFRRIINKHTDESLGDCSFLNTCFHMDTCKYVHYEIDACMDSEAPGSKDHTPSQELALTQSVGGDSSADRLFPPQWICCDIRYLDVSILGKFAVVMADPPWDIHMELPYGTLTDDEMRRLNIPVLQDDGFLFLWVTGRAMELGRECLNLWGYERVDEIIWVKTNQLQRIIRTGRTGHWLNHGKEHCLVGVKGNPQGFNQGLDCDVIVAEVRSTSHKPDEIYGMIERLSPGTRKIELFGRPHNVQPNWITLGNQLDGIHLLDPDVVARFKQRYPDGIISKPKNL
Sequence (Q9HCE5 whole entry R298P, chain 2 of 2): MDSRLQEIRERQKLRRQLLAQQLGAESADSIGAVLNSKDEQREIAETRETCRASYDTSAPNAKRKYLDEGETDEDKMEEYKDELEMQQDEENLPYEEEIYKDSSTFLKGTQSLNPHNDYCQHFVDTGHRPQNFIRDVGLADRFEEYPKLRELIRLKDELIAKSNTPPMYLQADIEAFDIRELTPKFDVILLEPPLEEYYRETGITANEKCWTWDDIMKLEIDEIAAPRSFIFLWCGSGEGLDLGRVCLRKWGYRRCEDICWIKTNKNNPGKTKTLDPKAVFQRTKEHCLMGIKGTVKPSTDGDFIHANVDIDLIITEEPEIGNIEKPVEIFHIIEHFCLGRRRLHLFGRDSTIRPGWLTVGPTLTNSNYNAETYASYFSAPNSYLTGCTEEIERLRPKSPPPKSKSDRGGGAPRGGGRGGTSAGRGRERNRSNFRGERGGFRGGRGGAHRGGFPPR
Experiment: SPR; two-state model; FP: 10 mM HEPES pH 7.5, 50 mM KCl, 5 nM RNA; SPR: 10 mM HEPES pH 7.5, 150 mM KCl, 0.05% P20, 25 C; 2-Ap: 50 mM Tris pH 8.0, 10 mM MgCl2, 0.5 uM RNA, read at 37
Settings: protein: recombinant;recombinant; tags: His-tag removed by TEV;; copies: 1;1; linear single strand
Value kind: Kd (µM)
Only the number, expressed in µM, is required.

CUUCGGACUCUGCU (ssRNA, m6A at position 7) [r6T-m6A (biotinyl)]; 22.9

We next turn to a different binder, shown below.
Param item = CUUCGGACUCUGCU (ssRNA) [r6T (biotinyl)] ; retrieve measured Kd.
2.16
